# pEC50 per entry
# SYSTEM NAME: Peroxisome proliferator-activated receptor alpha (Homo sapiens, UniProt Q07869)
# Sequence (Q07869 whole entry): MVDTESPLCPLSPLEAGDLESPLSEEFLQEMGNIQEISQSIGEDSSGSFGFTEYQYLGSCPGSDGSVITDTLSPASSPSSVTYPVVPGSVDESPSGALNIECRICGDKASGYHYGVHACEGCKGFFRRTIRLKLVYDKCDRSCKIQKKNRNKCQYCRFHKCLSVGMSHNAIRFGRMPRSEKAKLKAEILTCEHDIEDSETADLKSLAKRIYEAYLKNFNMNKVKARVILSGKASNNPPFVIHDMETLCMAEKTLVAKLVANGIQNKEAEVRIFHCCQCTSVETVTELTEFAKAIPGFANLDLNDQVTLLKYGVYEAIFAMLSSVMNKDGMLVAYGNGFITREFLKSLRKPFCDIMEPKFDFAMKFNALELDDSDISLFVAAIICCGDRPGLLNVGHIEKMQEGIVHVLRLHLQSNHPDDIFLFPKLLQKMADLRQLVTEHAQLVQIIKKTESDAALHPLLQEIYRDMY
# TEST NAME: Agonist activity at human PPAR alpha by FRET assay
# Format: functional
Scale note: pEC50 = -log10(concentration in M).

// worked examples, pEC50 included
CCCc1c(OCCCOc2ccc3c(c2)CC[C@H]3CC(=O)O)ccc2c(C(F)(F)F)noc12 :: 6.72
CCCc1cc(-c2nc(OC(C)C)cs2)ccc1OCCCOc1ccc2c(c1)CC[C@H]2CC(=O)O :: 7.33
CCOc1csc(-c2ccc(OCCCOc3ccc4c(c3)CC[C@H]4CC(=O)O)c(OC)c2)n1 :: 5.87

Inquiry: Need pEC50 of "COc1cc(-c2nc(C(F)(F)F)cs2)ccc1OCCCOc1ccc2c(c1)CC[C@H]2CC(=O)O" , thanks.
Reply text: 6.36

Inquiry: Need pEC50 of "COc1cc(-c2nc(OC(C)C)cs2)ccc1OCCCOc1ccc2c(c1)CC[C@H]2CC(=O)O" , thanks.
Reply text: 6.74

Inquiry: Need pEC50 of "O=C(O)C[C@@H]1CCc2cc(OCCCOc3ccc(-n4cnnc4)cc3Cl)ccc21" , thanks.
Reply text: 5.16

Inquiry: Need pEC50 of "CCCc1cc(-c2nc(CC)cs2)ccc1OCCCOc1ccc2c(c1)CC[C@H]2CC(=O)O" , thanks.
Reply text: 6.83

Inquiry: Need pEC50 of "CCCc1cc(-c2nc(CO)c(C(=O)O)s2)ccc1OCCCOc1ccc2c(c1)CC[C@H]2CC(=O)O" , thanks.
Reply text: 5.19

Inquiry: Need pEC50 of "COc1cc(-c2nc3c(s2)CCCC3)ccc1OCCCOc1ccc2c(c1)CC[C@H]2CC(=O)O" , thanks.
Reply text: 7.36

Inquiry: Need pEC50 of "COc1cc(-c2nc(C)c(C)s2)ccc1OCCCOc1ccc2c(c1)CC[C@H]2CC(=O)O" , thanks.
Reply text: 7.08

Inquiry: Need pEC50 of "COc1csc(-c2ccc(OCCCOc3ccc4c(c3)CC[C@H]4CC(=O)O)cc2)n1" , thanks.
Reply text: 5.24

Inquiry: Need pEC50 of "Cc1nc(-c2ccc(OCCCOc3ccc4c(c3)CC[C@H]4CC(=O)O)cc2)sc1C" , thanks.
Reply text: 5.90

Inquiry: Need pEC50 of "COc1cc(-c2nccs2)ccc1OCCCOc1ccc2c(c1)CC[C@H]2CC(=O)O" , thanks.
Reply text: 6.59

###

# SYSTEM NAME: Peroxisome proliferator-activated receptor delta (Homo sapiens)
# Sequence (Q03181 whole entry): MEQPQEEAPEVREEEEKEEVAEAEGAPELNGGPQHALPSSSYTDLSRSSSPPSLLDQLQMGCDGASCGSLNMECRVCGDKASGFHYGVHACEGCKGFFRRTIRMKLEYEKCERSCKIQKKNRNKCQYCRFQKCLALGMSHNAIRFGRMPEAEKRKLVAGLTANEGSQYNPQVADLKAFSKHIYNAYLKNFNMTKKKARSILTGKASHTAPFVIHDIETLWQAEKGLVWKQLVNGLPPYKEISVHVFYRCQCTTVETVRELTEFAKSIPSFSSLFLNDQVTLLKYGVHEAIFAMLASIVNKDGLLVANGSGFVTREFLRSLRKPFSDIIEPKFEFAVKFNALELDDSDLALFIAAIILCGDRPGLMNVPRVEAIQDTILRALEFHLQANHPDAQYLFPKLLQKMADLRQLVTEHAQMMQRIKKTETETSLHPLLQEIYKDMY
# TEST NAME: Agonist activity at human PPAR delta by FRET assay
# Assay type: functional
Mark each entry Criterion met if its EC50 sits below 20 nM, and Criterion not met for all others.

Consider the following illustrative entries.
CCCc1cc(-c2nc(C(C)(C)C)cs2)ccc1OCCCOc1ccc2c(c1)CC[C@H]2CC(=O)O :: Criterion met
Cc1noc2cc(OCCCOc3ccc4c(c3)CC[C@H]4CC(=O)O)ccc12 :: Criterion met
Cc1nc(-c2ccc(OCCCOc3ccc4c(c3)CC[C@H]4CC(=O)O)cc2)sc1C(=O)O :: Criterion not met
COc1cc(-c2nc3c(s2)CCC3)ccc1OCCCOc1ccc2c(c1)CC[C@H]2CC(=O)O :: Criterion met
Cc1coc2cc(OCCCOc3ccc4c(c3)CC[C@H]4CC(=O)O)ccc12 :: Criterion met
CCCc1c(OCCCOc2ccc3c(c2)CC[C@H]3CC(=O)O)ccc2c(C)noc12 :: Criterion met
COc1csc(-c2ccc(OCCCOc3ccc4c(c3)CC[C@H]4CC(=O)O)cc2)n1 :: Criterion met
COc1cc(C#N)ccc1OCCCOc1ccc2c(c1)CC[C@H]2CC(=O)O :: Criterion met

Inquiry: Problem: For the compound "COc1cc(-c2nc(C(F)(F)F)cs2)ccc1OCCCOc1ccc2c(c1)CC[C@H]2CC(=O)O" , is EC50 under 20 nM?
Reply text: Criterion met

Inquiry: Problem: For the compound "CCCc1cc(-c2nc(CO)c(C(=O)O)s2)ccc1OCCCOc1ccc2c(c1)CC[C@H]2CC(=O)O" , is EC50 under 20 nM?
Reply text: Criterion met

Inquiry: Problem: For the compound "O=C(O)C[C@@H]1CCc2cc(OCCCOc3ccc4[nH]ccc4c3)ccc21" , is EC50 under 20 nM?
Reply text: Criterion not met

Inquiry: Problem: For the compound "O=C(O)C[C@@H]1CCc2cc(OCCCOc3ccc(-c4ccoc4)cc3)ccc21" , is EC50 under 20 nM?
Reply text: Criterion met

Inquiry: Problem: For the compound "CCCc1cc(-c2nc(C)c(C(=O)O)s2)ccc1OCCCOc1ccc2c(c1)CC[C@H]2CC(=O)O" , is EC50 under 20 nM?
Reply text: Criterion not met

Inquiry: Problem: For the compound "Cc1ccc(OCCCOc2ccc3c(c2)CC[C@H]3CC(=O)O)cc1C" , is EC50 under 20 nM?
Reply text: Criterion not met

Inquiry: Problem: For the compound "O=C(O)C[C@@H]1CCc2cc(OCCCOc3ccc4cc[nH]c4c3)ccc21" , is EC50 under 20 nM?
Reply text: Criterion met

Inquiry: Problem: For the compound "CCc1csc(-c2ccc(OCCCOc3ccc4c(c3)CC[C@H]4CC(=O)O)cc2)n1" , is EC50 under 20 nM?
Reply text: Criterion met

Inquiry: Problem: For the compound "O=C(O)C[C@@H]1CCc2cc(OCCCOc3ccc(-c4ccsc4)cc3)ccc21" , is EC50 under 20 nM?
Reply text: Criterion met

Inquiry: Problem: For the compound "CCCc1cc(-c2nc3c(s2)CCCC3)ccc1OCCCOc1ccc2c(c1)CC[C@H]2CC(=O)O" , is EC50 under 20 nM?
Reply text: Criterion met

Inquiry: Problem: For the compound "C=CCc1c(OCCCOc2ccc3c(c2)CC[C@H]3CC(=O)O)ccc2[nH]ccc12" , is EC50 under 20 nM?
Reply text: Criterion met

Inquiry: Problem: For the compound "O=C(O)C[C@@H]1CCc2cc(OCCCOc3ccc(OC(F)(F)F)cc3)ccc21" , is EC50 under 20 nM?
Reply text: Criterion met

###

# SYSTEM NAME: Peroxisome proliferator-activated receptor alpha (Homo sapiens)
# TEST NAME: Agonist activity at human PPAR alpha by FRET assay
# Format: functional
READOUT: log10 EC50 (log10 of the value in µM)
Field: value | Transform: log10 | Quantity: EC50 | Unit: µM

O=C(O)C[C@@H]1CCc2cc(OCCCOc3ccc(-c4cccnc4)cc3)ccc21 :: 0.23
O=C(O)C[C@@H]1CCc2cc(OCCCOc3ccc(-c4cncnc4)cc3)ccc21 :: 0.86
CCCc1cc(-c2nc(C(F)(F)F)cs2)ccc1OCCCOc1ccc2c(c1)CC[C@H]2CC(=O)O :: -0.71

Inquiry: Need log10 EC50 of "CC(=O)Nc1cc(-n2ccnn2)ccc1OCCCOc1ccc2c(c1)CC[C@H]2CC(=O)O" , thanks.
Reply text: 0.96

Inquiry: Need log10 EC50 of "Cc1nc(-c2ccc(OCCCOc3ccc4c(c3)CC[C@H]4CC(=O)O)cc2)sc1C(=O)O" , thanks.
Reply text: 1.00

Inquiry: Need log10 EC50 of "CCCc1cc(-c2nc(C(C)(C)C)cs2)ccc1OCCCOc1ccc2c(c1)CC[C@H]2CC(=O)O" , thanks.
Reply text: -1.06

###

# SYSTEM NAME: PPAR gamma (Homo sapiens)
# TEST NAME: Agonist activity at human PPAR gamma expressed in human preadipocytes assessed as increase in insulin receptor by IRBA
READOUT: pEC50
Scale note: pEC50 = -log10(concentration in M).

Inquiry: Need pEC50 of "CCCc1cc(-c2nc3c(s2)CCCC3)ccc1OCCCOc1ccc2c(c1)CC[C@H]2CC(=O)O" , thanks.
Reply text: 7.09

###

# SYSTEM NAME: Cytochrome P450 2C8 (Homo sapiens)
# Sequence (P10632 whole entry): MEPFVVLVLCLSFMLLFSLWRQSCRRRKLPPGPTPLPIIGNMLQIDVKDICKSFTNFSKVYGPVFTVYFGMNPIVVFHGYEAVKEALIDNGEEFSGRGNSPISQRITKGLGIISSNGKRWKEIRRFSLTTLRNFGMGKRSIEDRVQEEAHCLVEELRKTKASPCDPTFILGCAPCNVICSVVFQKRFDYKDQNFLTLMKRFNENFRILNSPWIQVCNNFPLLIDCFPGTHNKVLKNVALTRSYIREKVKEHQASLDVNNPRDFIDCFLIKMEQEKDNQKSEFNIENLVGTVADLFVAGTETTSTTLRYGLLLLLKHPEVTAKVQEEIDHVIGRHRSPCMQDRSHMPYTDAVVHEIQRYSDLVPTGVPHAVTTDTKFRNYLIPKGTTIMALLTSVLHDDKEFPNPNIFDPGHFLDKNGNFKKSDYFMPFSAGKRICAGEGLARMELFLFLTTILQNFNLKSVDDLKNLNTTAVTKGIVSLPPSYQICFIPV
# TEST NAME: Inhibition of CYP2C8
# Assay type: ADME
READOUT: IC50

CCCc1cc(-c2nc3c(s2)CCCC3)ccc1OCCCOc1ccc2c(c1)CC[C@H]2CC(=O)O :: > 10 µM

Here is the next item to consider.
Inquiry: Need IC50 of "O=C(O)C[C@@H]1CCc2cc(OCCCOc3ccc(-c4nc5c(s4)CCCC5)cc3)ccc21" , thanks.
Reply text: > 10 µM
